# target.or.test.system: Hck (UniProt P08631)
# Sequence (P08631 whole entry, looked up): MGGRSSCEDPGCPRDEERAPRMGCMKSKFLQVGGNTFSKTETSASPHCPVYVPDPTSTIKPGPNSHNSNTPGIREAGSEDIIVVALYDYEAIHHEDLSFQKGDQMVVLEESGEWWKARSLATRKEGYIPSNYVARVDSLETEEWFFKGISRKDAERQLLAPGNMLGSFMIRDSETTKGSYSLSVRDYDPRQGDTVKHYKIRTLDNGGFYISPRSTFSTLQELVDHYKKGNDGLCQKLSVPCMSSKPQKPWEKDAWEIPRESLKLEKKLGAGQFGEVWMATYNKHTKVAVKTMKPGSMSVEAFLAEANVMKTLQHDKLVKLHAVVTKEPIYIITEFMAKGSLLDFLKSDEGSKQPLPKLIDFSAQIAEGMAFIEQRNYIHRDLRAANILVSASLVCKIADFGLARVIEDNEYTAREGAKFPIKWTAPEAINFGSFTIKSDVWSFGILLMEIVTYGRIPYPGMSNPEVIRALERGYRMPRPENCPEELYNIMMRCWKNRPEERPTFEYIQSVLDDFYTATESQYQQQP
# assay.name: phosphorylation enrichment, bacterial display (enrichment ratio); higher = better substrate or ligand; peptides without Tyr show the background
Exercise: state measured phosphorylation enrichment for each of the sequences provided.
Give bare numbers.

Known phosphorylation enrichment results, listed for orientation:
>>> value_reported("RDMMDYMPQGV [CYP21A2_Y259_L261P]")
0.578
>>> value_reported("CRAVKYLQMVD [AVPR2_Y117_G122D]")
0.456

List the reported phosphorylation enrichment of each sequence below.
1. DTKAFYPEEIS [HSPA1A_Y115_E110D]
2. RPSELYFSKIG [SMG1_Y2253_YF]
3. HSLHDYKEALM [ADA2_Y337]

0.393
1.74
0.342

---

# Test system: c-Abl (mouse)
# assay.name: phosphorylation enrichment, bacterial display (enrichment ratio); higher = better substrate or ligand; peptides without Tyr show the background
Exercise: state measured phosphorylation enrichment for each of the sequences provided.
One number for each entry.

List the reported phosphorylation enrichment of each sequence below.
1. KLNNEYLELNF [MME_Y497_YF]
2. PDNKPYIFKVF [PIK3AP1_Y553_E551K]
3. DWWQEYVLNES [TGM1_Y267_R264W]

1: 0.778; 2: 0.79; 3: 0.777

---

# target.or.test.system: Grb2 SH2 (UniProt P62993)
# Sequence (P62993 whole entry, looked up): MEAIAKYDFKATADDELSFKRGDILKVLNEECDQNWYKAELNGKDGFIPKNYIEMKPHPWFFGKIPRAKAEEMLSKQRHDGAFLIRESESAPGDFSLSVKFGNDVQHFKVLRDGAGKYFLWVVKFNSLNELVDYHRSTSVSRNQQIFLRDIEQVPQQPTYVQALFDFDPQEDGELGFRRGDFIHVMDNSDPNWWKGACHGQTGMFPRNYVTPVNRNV
# assay.name: SH2 binding enrichment of the phosphorylated peptide, bacterial display (enrichment ratio); higher = better substrate or ligand; peptides without Tyr show the background
Exercise: state measured SH2 binding enrichment for each of the sequences provided.
Answers are plain numbers.

Known SH2 binding enrichment results, listed for orientation:
>>> value_reported("ILGRYYETGSI [PAX2_Y73]")
0.817
>>> value_reported("DWWQEYVLNES [TGM1_Y267_R264W]")
0.993
>>> value_reported("FKIFRYTLNDN [FN1_Y1975_L1974R_YF]")
1.02
>>> value_reported("AKKIKYFEGVS [PRKDC_Y682]")
0.79

List the reported SH2 binding enrichment of each sequence below.
1. SIKGKYVTALF [KCNH2_Y611_D609G_YF]
2. TSNNPYFRDQA [RPGRIP1_Y846_A841T]

[0.988, 0.789]

---

# Tested on: c-Src
# assay.name: phosphorylation enrichment, bacterial display (enrichment ratio); higher = better substrate or ligand; peptides without Tyr show the background
Respond with condition met for phosphorylation enrichment values of 0.5 and above, condition not met for values below.

>>> label_value("IDNKMYDPKMN [ENPP1_Y280]")
"condition not met"
>>> label_value("SSMIDYNLLEK [MYOC_Y479_P481L]")
"condition not met"
>>> label_value("CTTSHYNFMCN [TP53_Y234_I232S_YF]")
"condition not met"
>>> label_value("DVCKKYAEAKD [ALB_Y343_N342K]")
"condition met"
>>> label_value("PTTKTYLPHFD [HBA1_Y43_F44L]")
"condition not met"

I'd appreciate it if you could say whether QKFMAYPSQGG [HLCS_Y236_L237P] has phosphorylation enrichment at least equal to 0.5.
condition met

I'd appreciate it if you could say whether ADCRYYAFPQM [GAMT_Y223] has phosphorylation enrichment at least equal to 0.5.
condition met

I'd appreciate it if you could say whether YGSSSSGGAGG [RPA2_Y14_Y14S] has phosphorylation enrichment at least equal to 0.5.
condition not met

I'd appreciate it if you could say whether SSTAMYSAPGR [PSMB1_Y8] has phosphorylation enrichment at least equal to 0.5.
condition met

I'd appreciate it if you could say whether LDAFIYDAALL [GRIN2A_Y730_V734L] has phosphorylation enrichment at least equal to 0.5.
condition met

I'd appreciate it if you could say whether EPVSDYINANI [PTPN11_Y304] has phosphorylation enrichment at least equal to 0.5.
condition not met

I'd appreciate it if you could say whether HLATEYVFSDF [PANX1_Y10_Q5H] has phosphorylation enrichment at least equal to 0.5.
condition met

I'd appreciate it if you could say whether GPGSGYTNIMR [PKLR_Y564_R559G] has phosphorylation enrichment at least equal to 0.5.
condition not met
